Give selectivity ratio for every item shown.
test: Protective index, ratio of TD50 for neurotoxicity in ip injected albino mouse to ED50 for anticonvulsant activity in ip injected albino mouse assessed as protection against 50 mA current-induced seizure; type: toxicity, organism-based; settings: in vivo, read-out: Ratio

Query :: Using known records, supply selectivity ratio for CCC1(C)CC(=O)NC1=O (stereo not drawn) [ETHOSUXIMIDE]
Result :: < 0.44

Query :: Using known records, supply selectivity ratio for Nc1ccc(Cl)cc1-c1n[nH]c(=O)n(-c2ccc(O)cc2)c1=O
Result :: 13.6

Query :: Using known records, supply selectivity ratio for CN(C)Nc1ccc(/C=N/Nc2nnc(-c3ccccc3)nc2Cc2cccc(Cl)c2)cc1
Result :: 8.01

Query :: Using known records, supply selectivity ratio for CN(C)Nc1ccc(/C=N/Nc2nnc(-c3ccccc3)nc2Cc2ccc(Cl)cc2)cc1
Result :: 7.82

Query :: Using known records, supply selectivity ratio for Nc1nc(-c2ccccc2)nnc1C(=O)N1CCCC1c1noc2cc(F)ccc12 (stereo not drawn)
Result :: > 48.4

Query :: Using known records, supply selectivity ratio for Nc1nc(-c2ccccc2)nnc1C(=O)N1CCCC1c1noc2cc(Cl)ccc12 (stereo not drawn)
Result :: > 18

Query :: Using known records, supply selectivity ratio for Nc1nc(-c2ccccc2)nnc1C(=O)N1CCCC1c1noc2cc(Br)ccc12 (stereo not drawn)
Result :: > 8.22

Query :: Using known records, supply selectivity ratio for Nc1nnc(C(=O)N2CCCC2c2noc3cc(F)ccc23)c(N)n1 (stereo not drawn)
Result :: > 28.2

###

assay: Neurotoxicity in mouse by rotarod test; assay type: toxicity; conditions: in vivo
Give TD50 for every item shown.

Query :: Using known records, supply TD50 for NC(=O)N1c2ccccc2C=Cc2ccccc21 [CARBAMAZEPINE]
Result :: 11.8 mg/kg

Query :: Using known records, supply TD50 for FC(F)(F)c1cccc(COc2nn3cnnc3c3ccccc23)c1
Result :: 853 mg/kg

Query :: Using known records, supply TD50 for CN(C)c1ccc(C2CC(c3ccccc3)=NC(=S)N2C(=S)Nc2ccccc2)cc1 (configuration not stated)
Result :: 580 mg/kg

Query :: Using known records, supply TD50 for CCCCOc1ccc2c(c1)sc1n[nH]c(=O)n12
Result :: > 700 mg/kg

Query :: Using known records, supply TD50 for Cc1ccc(NC(=S)N2C(=S)N=C(c3ccccc3)CC2c2ccc(O)cc2)cc1 (configuration not stated)
Result :: 534 mg/kg

Query :: Using known records, supply TD50 for Clc1ccc(Oc2cccc3nncn23)cc1
Result :: 63.4 mg/kg

Query :: Using known records, supply TD50 for O=c1[nH]nc2n1-c1ccc(OCc3ccc(F)cc3)cc1SCC2
Result :: 331 mg/kg

###

Give selectivity ratio for every item shown.
experiment: Protective index, ratio of TD50 for neurotoxicity in ip injected albino mouse to ED50 for anticonvulsant activity in albino mouse assessed as pentylenetetrazole-induced seizure; type: toxicity, organism-based; settings: in vivo, read-out: Ratio
Write the number on its own, no unit after it.

Query :: Using known records, supply selectivity ratio for CCC1(C)CC(=O)NC1=O (centres undefined) [ETHOSUXIMIDE]
Result :: 3.39

Query :: Using known records, supply selectivity ratio for CN(C)Nc1ccc(/C=N/Nc2nnc(-c3ccccc3)nc2Cc2cccc(Cl)c2)cc1
Result :: 4.73

Query :: Using known records, supply selectivity ratio for CN(C)Nc1ccc(/C=N/Nc2nnc(-c3ccccc3)nc2Cc2ccc(Cl)cc2)cc1
Result :: 4.29

Query :: Using known records, supply selectivity ratio for Nc1ccc(Cl)cc1-c1n[nH]c(=O)n(-c2ccc(O)cc2)c1=O
Result :: 7.15

###

assay: Protective index, ratio of TD50 for neurotoxicity in KunMing mouse to ED50 for anticonvulsant activity in KunMing mouse assessed as protection against pentylenetetrazole-induced seizure; format: toxicity; details: in vivo, read-out: PI
value-type: selectivity ratio
Write the number on its own, no unit after it.

Query :: Using known records, supply selectivity ratio for Clc1ccc(C2Cc3nncn3-c3ccsc32)cc1 (stereo unspecified)
Result :: 22.2

###

assay: Protective index, ratio of TD50 for neurotoxicity in mouse to ED50 for anticonvulsant activity in mouse assessed as protection against 50 mA current-induced seizure; format: toxicity; details: in vivo, read-out: PI
Give selectivity ratio for every item shown.
Write the number on its own, no unit after it.

Query :: Using known records, supply selectivity ratio for FC(F)(F)c1cccc(COc2nn3cnnc3c3ccccc23)c1
Result :: 91.7

Query :: Using known records, supply selectivity ratio for O=c1[nH]nc2n1-c1ccc(OCc3ccc(F)cc3)cc1SCC2
Result :: 12.6

###

Give selectivity ratio for every item shown.
assay: Protective index, ratio of TD50 for neurotoxicity in ip injected albino mouse to ED50 for anticonvulsant activity in albino mouse assessed as pentylenetetrazole-induced seizure; assay type: toxicity, organism-based; settings: in vivo, read-out: PI
Write the number on its own, no unit after it.

Query :: Using known records, supply selectivity ratio for S=C1N=C(c2ccccc2)CC(c2ccccc2)N1c1ccc(Cl)cc1 (configuration not stated)
Result :: 1.3

Query :: Using known records, supply selectivity ratio for COc1ccc(N2C(=S)N=C(c3ccccc3)CC2c2ccccc2)cc1 (configuration not stated)
Result :: 1.4

###

test: Protective index, ratio of TD50 for neurotoxicity in KunMing mouse to ED50 for anticonvulsant activity in KunMing mouse assessed as protection against 50 mA current-induced seizure; assay type: toxicity; conditions: in vivo, read-out: PI
value-type: selectivity ratio
Write the number on its own, no unit after it.

Query :: Using known records, supply selectivity ratio for CCCCCCOc1ccc2c(c1)CCc1nnc(C(N)=O)n1-2
Result :: 9.5

###

test: Neurotoxicity in KunMing mouse by rotarod test; format: toxicity; conditions: KunMing, in vivo, read-out: TD50
value-type: TD50 (mg/kg)
Give the value in mg/kg but do not write mg/kg after it.

Query :: Using known records, supply TD50 for Clc1ccc(C2Cc3nncn3-c3ccsc32)cc1 (stereo unspecified)
Result :: 456

###

Give ED50 for every item shown.
tested on: Mus musculus; assay: Anticonvulsant activity in ip injected albino mouse assessed as protection against 50 mA current-induced seizure by maximal electroshock seizure test; type: functional
Give the value in mg/kg but do not write mg/kg after it.

Query :: Using known records, supply ED50 for Nc1nc(-c2ccccc2)nnc1C(=O)N1CCCC1c1noc2cc(Cl)ccc12 (centres undefined)
Result :: 5.7

Query :: Using known records, supply ED50 for Nc1nc(-c2ccccc2)nnc1C(=O)N1CCCC1c1noc2cc(F)ccc12 (centres undefined)
Result :: 6.2

Query :: Using known records, supply ED50 for Nc1nnc(C(=O)N2CCCC2c2noc3cc(F)ccc23)c(N)n1 (centres undefined)
Result :: 7.1

###

Give TD50 for every item shown.
experiment: Neurotoxicity in ip injected albino mouse; format: toxicity, organism-based; settings: in vivo

Query :: Using known records, supply TD50 for Nc1nc(-c2ccccc2)nnc1C(=O)N1CCCC1c1noc2cc(Br)ccc12 (stereo not drawn)
Result :: > 100 mg/kg

Query :: Using known records, supply TD50 for Nc1nnc(C(=O)N2CCCC2c2noc3cc(F)ccc23)c(N)n1 (stereo not drawn)
Result :: > 200 mg/kg

Query :: Using known records, supply TD50 for Nc1nc(-c2ccccc2)nnc1C(=O)N1CCCC1c1noc2cc(F)ccc12 (stereo not drawn)
Result :: > 300 mg/kg
